Experiment: MRT (0 to t) in Sprague-Dawley rat at 2 mg/kg, iv measured for 24 hrs by LC-MS/MS analysis
Type: ADME, organism-based
Settings: in vivo
PARAMETER: MRT last at 24 h (min)

INSERT INTO measurements (structure_notation, unit_text, numeric_result) VALUES
  ('O=C1NCCCCn2cc(cn2)-c2cnc3ccc(cc3c2)CCn2nc(ccc2=O)-c2ccc1c(C(F)(F)F)c2', 'min', 21.6);

====

Assay: Cmax in Sprague-Dawley rat at 2 mg/kg, iv measured for 24 hrs by LC-MS/MS analysis
Format: ADME, organism-based
Design: dose 2 mg/kg, time 24 hrs, route iv
Conditions: in vivo
PARAMETER: Cmax

INSERT INTO measurements (structure_notation, result) VALUES
  ('O=C1NCCCCn2cc(cn2)-c2cnc3ccc(cc3c2)CCn2nc(ccc2=O)-c2ccc1c(C(F)(F)F)c2', '1070 ng/mL');
